meta.source: patent US20260138961A1

Reported AC50 is given for each of the following compounds.
- Study Target: POLγA:Y955C (Homo sapiens, UniProt P54098, Y955C)
- Sequence (P54098 whole entry Y955C): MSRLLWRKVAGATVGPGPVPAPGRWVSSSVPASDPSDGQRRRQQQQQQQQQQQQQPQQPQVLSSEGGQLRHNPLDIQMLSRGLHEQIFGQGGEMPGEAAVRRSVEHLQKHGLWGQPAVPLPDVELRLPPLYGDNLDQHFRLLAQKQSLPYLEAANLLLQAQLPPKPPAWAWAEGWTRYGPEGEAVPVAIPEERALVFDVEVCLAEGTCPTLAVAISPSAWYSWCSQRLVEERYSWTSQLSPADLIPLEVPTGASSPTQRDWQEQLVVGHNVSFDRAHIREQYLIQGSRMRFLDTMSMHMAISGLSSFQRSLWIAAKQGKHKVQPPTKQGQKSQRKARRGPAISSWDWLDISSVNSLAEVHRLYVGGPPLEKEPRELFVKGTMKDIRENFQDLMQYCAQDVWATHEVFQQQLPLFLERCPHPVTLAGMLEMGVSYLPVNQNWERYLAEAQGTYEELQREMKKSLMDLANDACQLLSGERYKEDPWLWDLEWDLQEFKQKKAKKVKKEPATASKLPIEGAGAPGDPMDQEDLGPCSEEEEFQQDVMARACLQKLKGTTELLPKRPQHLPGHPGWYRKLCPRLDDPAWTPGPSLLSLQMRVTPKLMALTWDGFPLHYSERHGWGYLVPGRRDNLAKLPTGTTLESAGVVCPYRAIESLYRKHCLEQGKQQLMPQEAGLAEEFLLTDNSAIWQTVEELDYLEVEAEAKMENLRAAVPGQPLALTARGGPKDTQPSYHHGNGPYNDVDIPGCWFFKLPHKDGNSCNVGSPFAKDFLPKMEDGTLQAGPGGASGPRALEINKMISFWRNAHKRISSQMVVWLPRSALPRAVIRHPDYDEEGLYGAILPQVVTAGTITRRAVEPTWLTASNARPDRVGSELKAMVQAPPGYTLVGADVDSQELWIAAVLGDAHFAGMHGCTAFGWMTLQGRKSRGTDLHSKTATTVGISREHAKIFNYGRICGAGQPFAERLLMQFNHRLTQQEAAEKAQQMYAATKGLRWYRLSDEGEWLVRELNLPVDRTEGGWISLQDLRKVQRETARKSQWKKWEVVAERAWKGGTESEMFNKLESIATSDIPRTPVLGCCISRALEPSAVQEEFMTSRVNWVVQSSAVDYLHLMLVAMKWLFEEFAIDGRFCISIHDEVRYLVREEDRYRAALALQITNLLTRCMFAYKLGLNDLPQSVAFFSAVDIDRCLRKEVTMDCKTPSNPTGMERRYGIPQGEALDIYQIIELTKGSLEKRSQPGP
- Sequence (Q9UHN1 whole entry partner): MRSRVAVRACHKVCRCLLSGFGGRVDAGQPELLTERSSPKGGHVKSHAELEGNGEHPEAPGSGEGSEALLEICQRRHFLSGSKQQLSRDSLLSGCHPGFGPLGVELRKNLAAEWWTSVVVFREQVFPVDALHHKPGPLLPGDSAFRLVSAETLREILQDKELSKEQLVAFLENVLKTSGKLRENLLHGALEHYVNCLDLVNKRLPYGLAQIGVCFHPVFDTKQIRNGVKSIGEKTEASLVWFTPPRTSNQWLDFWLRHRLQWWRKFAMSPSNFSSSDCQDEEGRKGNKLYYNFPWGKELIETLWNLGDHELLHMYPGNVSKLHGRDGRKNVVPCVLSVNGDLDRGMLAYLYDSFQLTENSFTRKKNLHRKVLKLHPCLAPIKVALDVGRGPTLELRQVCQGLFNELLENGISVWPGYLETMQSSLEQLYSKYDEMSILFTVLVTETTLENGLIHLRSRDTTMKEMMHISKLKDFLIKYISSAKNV
- Method Summary: DNA polymerization assay, POLγA:Y955C mutant
- Type: biochemical
- Conditions Used: stimulation of polymerase activity, primed M13mp18 ssDNA, 37° C. 2 hours

Asked: Consider the compound shown here: Cc1cc(S(=O)(=O)Nc2cccc(-c3cc(C4CC4)[nH]n3)c2)c(C)cc1Cl What is its recorded AC50?
Given back: > 100 µM

Asked: Another compound to look at: Cc1cc(S(=O)(=O)Nc2cccc(C(=O)N(C)C)c2)c(C)cc1Cl
Given back: 2 µM

Asked: Next entry: Cc1cnc(-c2ccc(C)c(NS(=O)(=O)c3cc(C)c(Cl)cc3C)c2)s1
Given back: > 10 µM
